Tested on: MS2 coat protein
Experiment: apparent KD of MS2 coat protein, switch OFF state (with FMN for OFF switches, without FMN for ON switches); designed switch direction (-1 OFF switch, 1 ON switch): -1; higher = weaker reporter binding
Settings: FMN input: 0 or 200 uM; Eterna round: R93 (includes R88 designs)

{"Residue codes": "CUCGUGUCAGGAUAUGGAAGGCCGUUUGAUUAACGAGGGUACUAGAAGGGACAUGAGGAUCACCCAUGUAAAAA [Maonis]", "apparent KD of MS2 coat protein (µM)": 0.0904}
{"Residue codes": "AGUAUCACAGGAUAUACAUAGGUGAAAAAAGUAAAUCCACUACAUGAGGAUCACCCAUGUAGAAGGGUGAUACA [Ex2 Design 177: Random 4B]", "apparent KD of MS2 coat protein (µM)": 0.0622}
{"Residue codes": "AAAACGUGAGGAUAUGCACCAAAAAAGGUAAAACGGGUACGACAUGAGGAUCACCCAUGUAGAAGGCACGAAAA [Frodo Flailing 10 - Jieux - Exclusion 2]", "apparent KD of MS2 coat protein (µM)": 0.107}
{"Residue codes": "AGUCUGAGAGGAUAUACAUGGGAAAAAAAAGUAAGAUCCCUACAUGAGGAUCACCCAUGUAGAAGGCUCUGACA [Ex2 Design 143: Sub-opt 7]", "apparent KD of MS2 coat protein (µM)": 0.0179}
{"Residue codes": "GGAAAGUCAGGAUAUGGAUAAUAAAUACAAAUAGAAACAAACCAGAAGGGACAUGAGGAUCACCCAUGUAAACA [Exclusion 4 Electric]", "apparent KD of MS2 coat protein (µM)": 0.0226}
{"Residue codes": "AUCAUGUAAGGAUAUAAAAGAAAAGAAAAGAAAGAAAAGAAUUAGAAGGUACAUGAGGAUCACCCAUGUAAGAA [EteRNA is fun!]", "apparent KD of MS2 coat protein (µM)": 0.0179}
{"Residue codes": "AAAAAGAGAGGAUAUACAUGAGGAUCACCCAUGUAAAAAAGAAGAAAGAAAAAAAAAUGUAGAAGGCUCAAAAA ['Exclusion 3']", "apparent KD of MS2 coat protein (µM)": 0.0343}
{"Residue codes": "UUUAAGUCAGGAUAUUCGGAUAGGAAAACGAAAACCUAUCCGAAGAAGGGACAUGAGGAUCACCCAUGUAAAAA [Starry Exclusion 4.3 (cataway round 1 mod)]", "apparent KD of MS2 coat protein (µM)": 0.0563}
{"Residue codes": "AAAAAUCGAGGAUAUACAUGAGGAUCACCCAUGUAAAAAAAAAAAAAGGGAAAAAAAAGUAGAAGGCGAAAAAA [Sekhemre-Heruhirmaat Intef VII]", "apparent KD of MS2 coat protein (µM)": 0.03}
{"Residue codes": "GGUUGGCGAGGAUAUACAUGAGGAUCACCCAUGUGAGAGGAAAAAGUGAGGAGGAGAAGUAGAAGGCGCUGACG [salish99-ex3-22]", "apparent KD of MS2 coat protein (µM)": 0.138}
{"Residue codes": "AAAAAGGCAGGAUAUGCAUACACACGAAAAAAAAAACUGGGACAUGAGGAUCACCCAUGUAGAAGGGCCAAAAA [Dora Explored 9 - Jieux - Exclusion 2]", "apparent KD of MS2 coat protein (µM)": 0.0419}
{"Residue codes": "AAAAAGGUAGGAUAUACAUGAGGAUCACCCAUGUGAAAAGAAAAUAAGAAAAGAAAGUGUAGAAGGACCAAAAA [JL JSci Mod In the Red]", "apparent KD of MS2 coat protein (µM)": 0.0441}
{"Residue codes": "AAAAGCACAGGAUAUACAAGGAUAUGACGAAAGUCAUAAAAACAUGAGGAUCACCCAUGUAGAAGGGUGCAAAA [Mod of Meechl's... 64% 3]", "apparent KD of MS2 coat protein (µM)": 0.136}
{"Residue codes": "AAAAGGUUAGGAUAUGCGUGGAAAAAGUGUAUCUAAAAAAAACAUGAGGAUCACCCAUGUAGAAGGGACUUAAA [Banishment 5 - Jieux - Exclusion 2]", "apparent KD of MS2 coat protein (µM)": 0.0371}
{"Residue codes": "UAUAACGAAGGAUAUACUAACGAAACUAAUGCAUAUAUAUAACAUGAGGAUCACCCAUGUAGAAGGUCGAGAAU [JR_Exc002_Sub011]", "apparent KD of MS2 coat protein (µM)": 0.0288}
{"Residue codes": "AGUUGGCGAGGAUAUACAUGAGGAUCACCCAUGUGAGAGAAUAAAGUGAGAAAGAAAAGUAGAAGGCGCUCACA [JL Lego Mod 16]", "apparent KD of MS2 coat protein (µM)": 0.0451}
